Assignment: determine reported ELISA 1 ug/ml for the given binders.
# assay_target: T1, His-tagged cynomolgus monkey CD38 (ACRO Biosystems cat #CD8-05223) (cynomolgus monkey, UniProt Q5VAN0 43-301)
# T1 construct: bought recombinant protein with His tag
# assay_protocol: ELISA, coated His-CD38

For the binder 40566p1.B11 (scFv, V domains shown, tested as scFv-Fc supernatant) VH: DVQLVESGGGLVRPGESLRLSCAASGFTFDNYDMTWVRQAPGEGLEWVSFISSRGTFTYYTDSVKGRFTISRDNSKNTLYLQMNSLRAEDTAIYYCAKDSGEYYFFDYWGLGTLVTVSS VL: EIVMTQSPATLSVSPGERATFSCRASQSVNSKLAWYQQKPGQAPRLLIYGASRRATGIPDRFSESGSGTEFTLTISSLQSEDFAVYYCQQYHDWPPLTFGGGTKVEIK , give its measured ELISA 1 ug/ml value.
1.44

Below: the item to evaluate.
Determine its reported ELISA 1 ug/ml: 40769p1.2.B4 (scFv, V domains shown, tested as scFv-Fc supernatant) VH: EVQLLESGGDLVQPGGSLRLSCGASGFTFSDHYMSWVRQAPGKGLEWVADISARGSNTWYADSVKGRFTISRDNSENTLYLQMNSLRAEDTAVYYCAKNWNYNYGMDVWGHGTTVTVSS VL: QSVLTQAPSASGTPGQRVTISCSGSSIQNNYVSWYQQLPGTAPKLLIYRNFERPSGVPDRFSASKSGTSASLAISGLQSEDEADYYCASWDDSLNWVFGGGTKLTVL
1.73
